Values were extracted from patent US6730672B2.

# melting point per entry

Use these answered entries as a reference point.
| Molecule | melting point |
| --- | --- |
| O=C(C1CCN(c2ccncc2)CC1)N1CCN(S(=O)(=O)c2ccc(-c3ccccn3)cc2)CC1 | 224 to 226 °C |
| O=C(CC1CCN(c2ccncc2)CC1)NCC(NC(=O)CNS(=O)(=O)c1ccc2ccccc2c1)C(=O)N1CCCCC1 (stereo not shown) | 148 to 149 °C |
| O=C(C1CCN(c2ccncn2)CC1)N1CCN(S(=O)(=O)c2ccc3ccccc3c2)CC1 | 203 to 205 °C |
| O=C(CNS(=O)(=O)c1ccc2ccccc2c1)NC(CNC(=O)N1CCN(c2ccncc2)CC1)C(=O)N1CCCCC1 (stereo not shown) | 223 to 226 °C |

Given the entry `Cc1cc(N2CCC(C(=O)N3CCN(S(=O)(=O)c4ccc5cc(Cl)ccc5c4)CC3)CC2)nc(N)n1` , report its measured melting point. 210 to 212 °C

Input `O=C(C1CCN(c2ccncn2)CC1)N1CCN(S(=O)(=O)c2ccc3cc(Cl)ccc3c2)CC1` 218 to 219 °C

Next entry: `O=C(c1ccc(NS(=O)(=O)/C=C/c2ccc(Cl)cc2)cc1)N1CCN(c2ccncc2)CC1` 207 to 209 °C
